Biological target: human μ opiate receptor (Homo sapiens, UniProt P35372)
Construct: purchased PerkinElmer Life Sciences, Zaventem, Belgium RB-HOM; host or cells: CHO-K1 cells (membrane preparation)
Sequence (P35372 whole entry): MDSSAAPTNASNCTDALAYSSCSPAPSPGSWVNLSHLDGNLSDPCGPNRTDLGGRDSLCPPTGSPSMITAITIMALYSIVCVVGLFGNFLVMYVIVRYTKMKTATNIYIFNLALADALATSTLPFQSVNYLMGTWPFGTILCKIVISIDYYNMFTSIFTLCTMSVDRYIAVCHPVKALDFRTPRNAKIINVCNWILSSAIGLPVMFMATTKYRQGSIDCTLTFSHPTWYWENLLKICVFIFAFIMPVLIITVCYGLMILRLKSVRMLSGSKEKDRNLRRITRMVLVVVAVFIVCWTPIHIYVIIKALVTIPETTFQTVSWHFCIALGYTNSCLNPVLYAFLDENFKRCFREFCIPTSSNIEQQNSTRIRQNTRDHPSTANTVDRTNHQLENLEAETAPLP
Assay: Affinity for the human μ opiate receptor ([3H]-naloxone displacement, CHO-K1 receptor membrane preparation, SPA)
Assay type: binding
Conditions: test concentration of 1 μM
The label depends only on μ (binding on the μ opioid receptor, % inhibition): T if it is at least 40%, F if it is smaller.

| Compound | Assigned Category |
| --- | --- |
| CN(C)C(c1cccc(F)c1)C1CCC(NC(=O)COCCN(C)S(=O)(=O)c2c(Cl)cc(Cl)cc2Cl)CC1 (stereo not drawn) | T |
| COc1cc(C)c(S(=O)(=O)N2CCN(CCOCC(=O)NCC3CCC(C(c4ccc(Cl)cc4)N(C)C)CC3)CC2)c(C)c1C (stereo not drawn) | T |
| CN(C)C(c1ccc(F)cc1)C1CCC(NC(=O)COC2CCCN(S(=O)(=O)c3ccccc3)C2)CC1 (stereo not drawn) | T |
| CN(C)C(c1ccc(Cl)cc1)C1CCC(CNC(=O)COC2CCN(S(=O)(=O)c3ccc(Cl)cc3)C2)CC1 (stereo not drawn) | T |
| CN(C)C(c1ccc(Cl)cc1)C1CCC(CNC(=O)COC2CCN(S(=O)(=O)c3ccc(F)cc3)C2)CC1 (stereo not drawn) | T |
| CN(C)C(c1cccs1)C1CCC(NC(=O)COCCN2CCN(S(=O)(=O)c3ccccc3)CC2)CC1 (stereo not drawn) | T |
| COc1cc(C)c(S(=O)(=O)N(CCOCC(=O)NCC2CCC(C(c3ccc(Cl)cc3)N(C)C)CC2)Cc2ccccc2)c(C)c1 (stereo not drawn) | F |
| CN(C)C(CCc1ccccc1)C1CCC(NC(=O)COCc2ccccc2)CC1 (stereo not drawn) | F |
| CN(C)C(CCc1ccccc1)C1CCC(CNC(=O)COCCN(Cc2ccccc2)S(=O)(=O)c2ccccc2)CC1 (stereo not drawn) | F |
| COc1cc(C)c(S(=O)(=O)N(CCOCC(=O)NCC2CCC(C(c3ccc(F)cc3)N(C)C)CC2)Cc2ccccc2)c(C)c1C (stereo not drawn) | F |
| CN(C)C(CCc1ccccc1)C1CCC(CNC(=O)COCCN(C)S(=O)(=O)c2ccc(Cl)cc2Cl)CC1 (stereo not drawn) | F |
| COc1ccc(S(=O)(=O)N2CCCCC2CCOCC(=O)NCC2CCC(C(c3ccc(Cl)cc3)N(C)C)CC2)cc1 (stereo not drawn) | T |
| CN(C)C(c1cccc(F)c1)C1CCC(CCNC(=O)COCCN(C)S(=O)(=O)c2ccc(OC(F)(F)F)cc2)CC1 (stereo not drawn) | T |
| CN(C)C(c1ccc(F)cc1)C1CCC(NC(=O)COCCN2CCN(S(=O)(=O)c3ccccc3)CC2)CC1 (stereo not drawn) | F |
| COc1ccc(S(=O)(=O)N(C)CCOCC(=O)NCC2CCC(C(c3ccc(F)cc3)N(C)C)CC2)cc1 (stereo not drawn) | F |

====

The reader will find reported B1R Ant. h [10 μM] % Inhibition values listed item by item below.
Target: human bradykinin 1 receptor (B1R) (Homo sapiens, UniProt P46663)
Construct: expressed in transfected cells; host or cells: CHO K1 cells
Sequence (P46663 whole entry): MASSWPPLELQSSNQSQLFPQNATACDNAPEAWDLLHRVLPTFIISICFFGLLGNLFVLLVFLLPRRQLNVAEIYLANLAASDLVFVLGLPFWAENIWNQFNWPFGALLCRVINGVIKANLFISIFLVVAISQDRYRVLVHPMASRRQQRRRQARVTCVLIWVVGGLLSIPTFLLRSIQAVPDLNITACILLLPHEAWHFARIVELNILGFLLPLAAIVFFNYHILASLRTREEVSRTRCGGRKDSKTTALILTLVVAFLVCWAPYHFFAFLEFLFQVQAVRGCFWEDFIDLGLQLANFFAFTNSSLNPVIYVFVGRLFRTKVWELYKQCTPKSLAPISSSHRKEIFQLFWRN
Assay: Functional investigation on the human bradykinin 1 receptor (B1R), Ca2+ FLIPR assay in CHO K1 hB1R cells
Format: cell-based
Settings: B1R antagonism human; test substance 10 μM; Ca2+ FLIPR, CHO K1 hB1R cells

| Compound | Units Of Measure | B1R Ant. h [10 μM] % Inhibition |
| --- | --- | --- |
| CN(C)C(c1ccc(Cl)cc1)C1CCC(CNC(=O)COC2CCCCC2N(C)S(=O)(=O)c2ccc(Cl)c(Cl)c2)CC1 (stereo not shown) | % | 7 |
| CN(C)C(c1ccc(F)cc1)C1CCC(CNC(=O)COC2CCCCC2N(C)S(=O)(=O)c2ccc(Cl)c(Cl)c2)CC1 (stereo not shown) | % | 42 |
| COc1ccc(S(=O)(=O)N2Cc3ccccc3CC2COCC(=O)NC2CCC(C(c3ccc(F)cc3)N(C)C)CC2)cc1 (stereo not shown) | % | 50 |
| CN(C)C(c1cccc(F)c1)C1CCC(CNC(=O)COC2CCN(S(=O)(=O)c3ccc(Cl)cc3Cl)C2)CC1 (stereo not shown) | % | 51 |
| CN(C)C(c1ccc(F)cc1)C1CCC(CCNC(=O)COCCN2CCN(S(=O)(=O)c3ccccc3)CC2)CC1 (stereo not shown) | % | −13 |
| COc1cc(C)c(S(=O)(=O)N(CCOCC(=O)NCC2CCC(C(c3ccc(F)cc3)N(C)C)CC2)Cc2ccccc2)c(C)c1C (stereo not shown) | % | 54 |
| COc1ccc(S(=O)(=O)N2CCCCC2COCC(=O)NCCC2CCC(C(c3ccc(F)cc3)N(C)C)CC2)c(OC)c1 (stereo not shown) | % | 3 |
